Attribute: EC50
target-entity: human mAChR M1 (Homo sapiens, UniProt P11229)
Sequence (P11229 1-460): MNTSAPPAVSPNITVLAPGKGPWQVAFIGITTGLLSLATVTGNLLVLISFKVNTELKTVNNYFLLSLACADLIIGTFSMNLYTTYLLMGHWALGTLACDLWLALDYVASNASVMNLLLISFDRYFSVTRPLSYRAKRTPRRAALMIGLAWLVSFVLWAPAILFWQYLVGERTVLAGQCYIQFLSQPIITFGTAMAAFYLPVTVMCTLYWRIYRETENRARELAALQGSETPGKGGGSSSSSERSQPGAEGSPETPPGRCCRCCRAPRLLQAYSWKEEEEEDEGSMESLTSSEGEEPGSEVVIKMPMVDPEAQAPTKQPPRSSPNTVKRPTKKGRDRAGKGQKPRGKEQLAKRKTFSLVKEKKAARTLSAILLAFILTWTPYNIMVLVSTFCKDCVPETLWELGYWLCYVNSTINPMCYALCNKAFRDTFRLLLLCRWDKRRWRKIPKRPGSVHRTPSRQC
test-details: mAChR M1 cell-based functional assay (calcium mobilization), agonist mode: compound alone, Emax relative to acetylcholine maximum
assay-conditions: human mAChR M1
Unit µM implied. Number only.

# compound, target-entity, EC50 (µM)
rows = [
    ("[2H]C1([2H])c2ncccc2C(=O)N1Cc1c(F)cc(-c2ccc(Cl)c3nn(C)cc23)cc1C1CC1", "human mAChR M1 (Homo sapiens, UniProt P11229)", 9.7),
    ("[2H]C1([2H])c2ncccc2C(=O)N1Cc1c(F)cc(-c2ccc(C(F)F)c3nn(C)cc23)cc1F", "human mAChR M1 (Homo sapiens, UniProt P11229)", 7.93),
    ("[2H]C1([2H])c2ncccc2C(=O)N1Cc1c(C)cc(-c2ccc(OCCOC)c3nn(C)cc23)cc1F", "human mAChR M1 (Homo sapiens, UniProt P11229)", 6.12),
    ("[2H]C1([2H])c2ncccc2C(=O)N1Cc1c(F)cc(-c2ccc(OCCOC)c3nn(C)cc23)cc1C1CC1", "human mAChR M1 (Homo sapiens, UniProt P11229)", 2.56),
    ("[2H]C1([2H])c2ncccc2C(=O)N1Cc1c(C)cc(-c2cccc3nn(C)cc23)cc1F (single isomer, unassigned)", "human mAChR M1 (Homo sapiens, UniProt P11229)", 8.25),
]

Shift focus to the following entry.
Challenge: // fetch human mAChR M1 (Homo sapiens, UniProt P11229) EC50 for `[2H]C1([2H])c2ncccc2C(=O)N1Cc1c(F)cc(-c2cn(C)c(=O)c3nn(C([2H])([2H])[2H])cc23)cc1F`
Response given: 7.74

====

target-entity: human mAChR M1 (Homo sapiens, UniProt P11229)
test-details: mAChR M1 cell-based functional assay (calcium mobilization), agonist mode: compound alone, Emax relative to acetylcholine maximum
assay-conditions: relative to the maximum for acetylcholine
Classes based on Emax: class 1: < 5%; class 2: ≥ 5% and < 20%; class 3: ≥ 20%

Study these solved cases before continuing.
# compound, cat
rows = [
    ("[2H]C1([2H])c2ncccc2C(=O)N1Cc1c(F)cc(-c2ccc(O[C@@H](C)COC)c3nn(C)cc23)cc1F [Compound 171]", "class 3"),
    ("[2H]C1([2H])c2ncccc2C(=O)N1Cc1c(F)cc(-c2cccc3nn(C)cc23)cc1C1CCCC1 [Compound 223]", "class 1"),
    ("[2H]C1([2H])c2ncccc2C(=O)N1Cc1c(F)cc(-c2cc(F)c(F)c3nn(C([2H])([2H])[2H])cc23)cc1F [Compound 106]", "class 1"),
    ("[2H]C1([2H])c2ncccc2C(=O)N1Cc1ccc(-c2ccn3ccnc3c2)cc1 [Compound 19]", "class 1"),
    ("[2H]C1([2H])c2ncccc2C(=O)N1Cc1ccc(-c2ccc(C)c3nn(C)cc23)cc1C [Compound 30]", "class 3"),
]

Challenge: Kindly state the category for this compound: [2H]C1([2H])c2ncccc2C(=O)N1Cc1c(F)cc(-c2ccc(OC3CN(C(C)C)C3)c3nn(C)cc23)cc1F [Compound 180]
Response given: class 2

Challenge: Param item: [2H]C1([2H])c2ncccc2C(=O)N1Cc1ccc(-c2cccc3nn(C([2H])([2H])[2H])cc23)cc1F [Compound 53]
Response given: class 2

Challenge: Param item: [2H]C1([2H])c2ncc(O)cc2C(=O)N1Cc1c(F)cc(-c2cccc3nn(C([2H])([2H])[2H])cc23)cc1F [Compound 141]
Response given: class 3

Challenge: Param item: [2H]C1([2H])c2ncccc2C(=O)N1Cc1c(F)cc(-c2ccc(OCCOC3CC3)c3nn(C)cc23)cc1F [Compound 150]
Response given: class 3

Challenge: Param item: [2H]C1([2H])c2ncccc2C(=O)N1Cc1c(C)cc(-c2ccc(OC)c3nn(C)cc23)cc1F [Compound 195]
Response given: class 3

Challenge: Param item: [2H]C1([2H])c2ncccc2C(=O)N1Cc1ccc(-c2ccc(OC(C)COC)c3nn(C)cc23)cc1F (centres unmarked) [Compound 143]
Response given: class 2

Challenge: Param item: [2H]C1([2H])c2ncccc2C(=O)N1Cc1ccc(-c2ccc3c(cnn3C)c2)cc1F [Compound 10]
Response given: class 1

====

target-entity: human mAChR M1 (Homo sapiens)
Sequence (P11229 1-460): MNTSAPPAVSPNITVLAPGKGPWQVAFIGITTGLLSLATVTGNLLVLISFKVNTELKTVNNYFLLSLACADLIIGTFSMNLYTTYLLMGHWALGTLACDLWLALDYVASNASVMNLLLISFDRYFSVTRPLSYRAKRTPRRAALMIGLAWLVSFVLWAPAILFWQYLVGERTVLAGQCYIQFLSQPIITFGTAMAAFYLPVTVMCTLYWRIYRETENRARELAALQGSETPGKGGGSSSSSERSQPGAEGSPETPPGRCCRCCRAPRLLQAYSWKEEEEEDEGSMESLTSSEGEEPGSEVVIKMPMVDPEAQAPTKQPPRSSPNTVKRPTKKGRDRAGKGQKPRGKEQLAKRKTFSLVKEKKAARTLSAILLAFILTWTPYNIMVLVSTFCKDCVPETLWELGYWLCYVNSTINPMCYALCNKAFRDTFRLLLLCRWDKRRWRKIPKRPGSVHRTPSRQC
test-details: mAChR M1 cell-based functional assay (calcium mobilization), agonist mode: compound alone, Emax relative to acetylcholine maximum
assay-conditions: relative to the maximum for acetylcholine
Labelling: Emax reported below 6% becomes 1.0; at or above becomes 0.0.

# cpd-smiles, target-entity, cat
rows = [
    ("[2H]C1([2H])c2ncccc2C(=O)N1Cc1c(F)cc(-c2cccc3c2cnn3CC)cc1F", "human mAChR M1 (Homo sapiens)", 1.0),
    ("[2H]C1([2H])c2ncccc2C(=O)N1Cc1c(F)cc(-c2ccc(OC3CC3)c3nn(C)cc23)cc1C1CC1", "human mAChR M1 (Homo sapiens)", 0.0),
    ("[2H]C1([2H])c2ncccc2C(=O)N1Cc1c(F)cc(-c2ccc(OC3CC3)c3nn(C)cc23)cc1F", "human mAChR M1 (Homo sapiens)", 0.0),
    ("[2H]C1([2H])c2ncccc2C(=O)N1Cc1c(F)cc(-c2ccc(OC)c3nn(C([2H])([2H])[2H])cc23)cc1C1CC1", "human mAChR M1 (Homo sapiens)", 0.0),
    ("[2H]C1([2H])c2ncccc2C(=O)N1Cc1c(F)cc(-c2ccc(OC(C)C)c3nn(C([2H])([2H])[2H])cc23)cc1F", "human mAChR M1 (Homo sapiens)", 0.0),
]

Challenge: Problem: For the molecule `[2H]C1([2H])c2ncccc2C(=O)N1Cc1ccc(-c2ccc(OCC3(C#N)CC3)c3nn(C)cc23)cc1F` , is Emax under 6%?
Response given: 0.0

Challenge: Param item: `[2H]C1([2H])c2ncccc2C(=O)N1Cc1c(F)cc(-c2cccc3nn(CF)cc23)cc1F`
Response given: 0.0

Challenge: Param item: `[2H]C1([2H])c2ncccc2C(=O)N1Cc1c(F)cc(-c2cncc3nn(C)cc23)cc1F`
Response given: 1.0

Challenge: Param item: `[2H]C1([2H])c2ncccc2C(=O)N1Cc1c(F)cc(-c2cccc3nn(C)cc23)cc1F`
Response given: 0.0

Challenge: Param item: `[2H]C1([2H])c2ncccc2C(=O)N1Cc1c(F)cc(-c2ccc(O[C@H](C)COC)c3nn(C)cc23)cc1F`
Response given: 0.0

====

Attribute: pEC50
target-entity: human mAChR M1 (Homo sapiens)
test-details: mAChR M1 cell-based functional assay (calcium mobilization), PAM mode: increase in the EC20 acetylcholine response
Procedure: Chinese hamster ovary (CHO-K1) cells stably expressing rat (r)M1 were purchased from the American Type Culture Collection and cultured according to their indicated protocol. […] Calcium flux was measured using the Functional Drug Screening System (FDSS) 6000 (Hamamatsu Corporation, Tokyo, Japan) as an increase in the fluorescent static ratio. […] Agonist activity was analyzed as a concentration-dependent increase in calcium mobilization upon compound addition. […]
Keep in mind that pEC50 stands for -log10 of concentration in molar terms.

Check out these entries, answers already filled in.
# compound, quantitative-result
rows = [
    ("[2H]C1([2H])c2ncccc2C(=O)N1Cc1c(F)cc(-c2cccc3nn(C)cc23)cc1C1CCCC1 [Compound 223]", 5.28),
    ("[2H]C1([2H])c2ncccc2C(=O)N1Cc1ccc(-c2ccc(OCCOC)c3nn(C)cc23)cc1F [Compound 116]", 6.54),
    ("[2H]C1([2H])c2ncccc2C(=O)N1Cc1c(F)cc(-c2ccnc3nn(C([2H])([2H])[2H])cc23)cc1F [Compound 188]", 5.57),
]

Challenge: Endpoint output: pEC50 of [2H]C1([2H])c2ncccc2C(=O)N1Cc1c(F)cc(-c2cc(OC)c3nn(C)cc3c2)cc1F [Compound 76] . Value?
Response given: 7.24

Challenge: Param item: [2H]C1([2H])c2ncccc2C(=O)N1Cc1c(F)cc(-c2cc(Cl)cc3nn(C([2H])([2H])[2H])cc23)cc1F [Compound 85]
Response given: 6.18
